Measured values drawn from patent US9247759B2 for this set.

Assign inhibition at 25 µM to each entry below.
Tested target: hT2R10 (Homo sapiens (Human))
Sequence (Q9NYW0 whole entry): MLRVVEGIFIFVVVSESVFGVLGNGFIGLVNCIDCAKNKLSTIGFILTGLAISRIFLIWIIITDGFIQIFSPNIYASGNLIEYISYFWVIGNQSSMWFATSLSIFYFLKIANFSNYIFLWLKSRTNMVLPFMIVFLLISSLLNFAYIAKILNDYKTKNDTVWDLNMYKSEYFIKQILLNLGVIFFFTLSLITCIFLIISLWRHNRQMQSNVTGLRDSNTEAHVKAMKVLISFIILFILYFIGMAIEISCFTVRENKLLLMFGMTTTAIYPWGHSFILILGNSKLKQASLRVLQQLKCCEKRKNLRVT
Method description: hT2R panel inhibition, transient HEK293 G16g44, agonist Strychnine 50 μM
Format: cell-based
Measurement context: HEK293, read-out: screening result against bitter receptor 10, compound at 25 μM; receptor activated to EC80 with the corresponding agonist
Procedure: Specifically, in order to evaluate the inhibitory selectivity of the Compound C compound, this compound was tested against 22 human T2Rs which were deorphaned by Senomyx. These receptors and the bitter ligands that activate these human T2Rs are reported in earlier patent applications which are incorporated by reference herein. These 22 human T2Rs are hT2R1, 3, 4, 5, 7, 8, 9, 10, 13, 14, 16, 44, 51, 54, 55, 61, 63, 64, 65, 67, 71 and 75. […]

Solved entries:
INSERT INTO measurements (compound, measurement_label, value_measured) VALUES
  ('COc1ccc(CN(Cc2ccccc2OC)S(=O)(=O)c2ccc(C(=O)O)cc2)cc1 [Example 5-58]', 'inhibition at 25 µM', '60 to 80%'),
  ('CCN(Cc1ccc(OC)cc1)S(=O)(=O)c1ccc(C(=O)O)cc1 [Example 5-4]', 'inhibition at 25 µM', '40 to 60%'),
  ('CCc1ccc(CN(Cc2ccccc2)S(=O)(=O)c2ccc(C(=O)O)cc2)cc1 [Example 5-85]', 'inhibition at 25 µM', '40 to 60%'),
  ('COc1ccc(CN(Cc2ccco2)S(=O)(=O)c2ccc(C(=O)O)cc2)cc1 [Example 5-2]', 'inhibition at 25 µM', '60 to 80%'),
  ('COc1ccccc1CN(Cc1ccccc1)S(=O)(=O)c1ccc(C(=O)O)cc1 [Example 5-71]', 'inhibition at 25 µM', '20 to 40%'),
  ('COc1ccc(CN(Cc2cccc(F)c2)S(=O)(=O)c2ccc(C(=O)O)cc2)cc1 [Example 5-12]', 'inhibition at 25 µM', '> 80%');

Field: inhibition at 25 µM. Fill in for each record below.
1. O=C(O)c1ccc(S(=O)(=O)N(Cc2ccccc2)Cc2cccc(F)c2)cc1 [Example 5-79]
2. O=C(O)c1ccc(S(=O)(=O)N(Cc2ccccc2)Cc2ccc(Cl)cc2)cc1 [Example 5-77]

Result ::
["20 to 40%", "20 to 40%"]

###

Tested target: hT2R14 (Homo sapiens (Human))
Method description: hT2R14 antagonist high-throughput FLIPR assay, stable cell line with G16g44, agonist aristolochic acid
Format: cell-based
Measurement context: read-out: IC50 on hT2R14 bitter receptor
Measurement label: pIC50
One number for each entry, as −log10 of the molar value.

Solved entries:
INSERT INTO assay_data (compound, value_measured) VALUES
  ('COc1ccc(CN(CCc2ccccc2)S(=O)(=O)c2ccc(C(=O)O)cc2)cc1', 5.34),
  ('O=C(O)C1CCC(CN(Cc2ccc(F)cc2)S(=O)(=O)Cc2ccccc2)CC1 (centres unmarked)', 5.02),
  ('COc1ccc(CN(Cc2ccccc2C#N)S(=O)(=O)c2ccc(C(=O)O)cc2)cc1', 5.34),
  ('COc1cccc(CN(Cc2ccc(C(=O)O)cc2)S(=O)(=O)c2ccc(O)cc2)c1', 6.73),
  ('COc1ccc(CN(Cc2ccc(OC)cc2)S(=O)(=O)c2ccc(C(=O)O)cc2)cc1', 5.38),
  ('COc1ccc(CN(CC2CCCCC2)S(=O)(=O)c2ccc(C(=O)O)cc2)cc1', 5.46),
  ('COc1ccc(CN(Cc2cccc(OC)c2)S(=O)(=O)c2ccc(C(=O)O)cc2)cc1', 5.61),
  ('COc1ccc(CN(Cc2ccc(OC)c(F)c2)S(=O)(=O)c2ccc(C(=O)O)cc2)cc1', 5.95);

Field: pIC50. Fill in for each record below.
1. COc1cc(OC)c(CN(Cc2ccccc2)S(=O)(=O)c2ccc(C(=O)O)cc2)c(OC)c1
2. COc1ccc(CN(Cc2ccc(F)c(OC)c2)S(=O)(=O)c2ccc(C(=O)O)cc2)cc1
3. N#C/C(=C\c1ccco1)C(=O)Nc1nnc(-c2ccccc2)s1
4. O=C(O)c1ccc(S(=O)(=O)N(Cc2ccccc2)Cc2ccco2)cc1
5. Cn1c(=O)c(=O)n(C)c2cc(S(=O)(=O)Nc3ccc4c(c3)OCCO4)ccc21
6. CCCN(Cc1ccc(OC)cc1)S(=O)(=O)c1ccc(C(=O)O)cc1

Result ::
1: 4.97; 2: 5.78; 3: 6.30; 4: 5.34; 5: 5.11; 6: 5.43

Field: pIC50. Fill in for each record below.
1. CCOc1ccc(CN(Cc2ccco2)S(=O)(=O)c2ccc(C(=O)O)cc2)cc1
2. O=C(O)C1CCC(CN(Cc2ccc(F)cc2)S(=O)(=O)c2ccccc2)CC1 (centres unmarked)
3. Cc1ccc(S(=O)(=O)N(Cc2ccccc2)CC2CCC(C(=O)O)CC2)cc1 (centres unmarked)

Result ::
1: 5.52; 2: 6.62; 3: 7.85

###

Tested target: hT2R14 (Homo sapiens (Human), UniProt Q9NYV8)
Sequence (Q9NYV8 whole entry): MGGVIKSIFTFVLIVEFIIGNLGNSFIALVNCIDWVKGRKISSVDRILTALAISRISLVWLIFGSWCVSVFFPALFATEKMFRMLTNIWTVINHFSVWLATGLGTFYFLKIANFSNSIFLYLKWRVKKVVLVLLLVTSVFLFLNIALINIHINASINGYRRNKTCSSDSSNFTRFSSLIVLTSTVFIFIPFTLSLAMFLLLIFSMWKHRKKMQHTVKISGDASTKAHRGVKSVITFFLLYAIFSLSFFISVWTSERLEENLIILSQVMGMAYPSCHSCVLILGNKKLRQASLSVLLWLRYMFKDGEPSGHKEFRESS
Method description: hT2R14 antagonist high-throughput FLIPR assay, stable cell line with G16g44, agonist aristolochic acid
Type: cell-based
Measurement context: read-out: IC50 on hT2R14 bitter receptor
pIC50: −log10 of the molar value.
Label 1 when pIC50 is at or above 6; otherwise label -1.

Reference set, count: 3
INSERT INTO results (compound, category) VALUES
  ('Cc1ccc(S(=O)(=O)N(Cc2ccc(F)cc2)Cc2ccc(C(=O)O)cc2)cc1', 1),
  ('CCCOc1ccc(CN(Cc2ccco2)S(=O)(=O)c2ccc(C(=O)O)cc2)cc1', -1),
  ('COc1ccccc1CN(Cc1ccco1)S(=O)(=O)c1ccc(C(=O)O)cc1', -1);

Query :: Tell me whether pIC50 is at least 6 here: COc1ccc(OC)c(/C=C2\SC(=S)N(CCC(=O)O)C2=O)c1
Result :: -1

###

Tested target: hT2R61 (Homo sapiens (Human))
Sequence (P59537 whole entry): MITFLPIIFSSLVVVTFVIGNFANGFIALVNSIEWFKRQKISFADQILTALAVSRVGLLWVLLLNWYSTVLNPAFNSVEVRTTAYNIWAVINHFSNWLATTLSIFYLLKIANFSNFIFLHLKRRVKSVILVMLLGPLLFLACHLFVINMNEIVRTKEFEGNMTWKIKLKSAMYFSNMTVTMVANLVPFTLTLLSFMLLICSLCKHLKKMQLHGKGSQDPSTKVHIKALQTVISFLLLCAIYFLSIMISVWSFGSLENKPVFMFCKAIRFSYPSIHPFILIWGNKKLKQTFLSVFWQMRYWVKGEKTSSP
Method description: hT2R panel inhibition, transient HEK293 G16g44, agonist Aristolochic Acid 25 nM
Type: cell-based
Measurement context: HEK293, compound at 25 μM; receptor activated to EC80 with the corresponding agonist; read-out: screening result against bitter receptor 61
Assign inhibition at 25 µM to each entry below.

INSERT INTO measurements (compound, value_measured) VALUES
  ('COc1ccc(CN(Cc2cc(OC)cc(OC)c2)S(=O)(=O)c2ccc(C(=O)O)cc2)cc1 [Example 5-67]', '40 to 60%'),
  ('COc1ccc(CN(Cc2ccc(F)c(F)c2)S(=O)(=O)c2ccc(C(=O)O)cc2)cc1 [Example 5-36]', '> 80%'),
  ('COc1ccccc1CN(Cc1ccccc1)S(=O)(=O)c1ccc(C(=O)O)cc1 [Example 5-71]', '> 80%'),
  ('COc1ccc(CN(Cc2ccc(F)cc2)S(=O)(=O)c2ccc(C(=O)O)cc2)cc1 [Example 5-69]', '60 to 80%'),
  ('COc1ccc(CN(Cc2cccc(F)c2)S(=O)(=O)c2ccc(C(=O)O)cc2)cc1 [Example 5-12]', '> 80%'),
  ('Cc1ccc(S(=O)(=O)N(Cc2ccccc2)CC2CCC(C(=O)O)CC2)cc1 (centres unmarked) [Example 5-11]', '> 80%');

Field: inhibition at 25 µM. Fill in for each record below.
1. COc1ccc(CN(Cc2ccccc2)S(=O)(=O)c2ccc(C(=O)O)cc2)c(OC)c1 [Example 5-13]
2. COc1ccc(CN(Cc2ccccc2)S(=O)(=O)c2ccc(CCC(=O)O)cc2)cc1 [Example 5-59]

Result ::
["> 80%", "40 to 60%"]

###

Tested target: hT2R71 (Homo sapiens (Human))
Sequence (P59536 whole entry): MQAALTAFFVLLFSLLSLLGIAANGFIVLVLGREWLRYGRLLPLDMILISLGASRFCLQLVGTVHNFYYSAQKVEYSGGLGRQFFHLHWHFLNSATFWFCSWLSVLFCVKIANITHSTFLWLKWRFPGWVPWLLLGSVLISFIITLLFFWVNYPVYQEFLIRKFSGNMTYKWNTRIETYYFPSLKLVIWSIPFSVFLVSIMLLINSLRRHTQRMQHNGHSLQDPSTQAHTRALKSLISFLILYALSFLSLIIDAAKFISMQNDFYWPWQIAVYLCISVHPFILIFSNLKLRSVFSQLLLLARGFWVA
Method description: hT2R panel inhibition, transient HEK293 G16g44, agonist Picric Acid 10 μM
Format: cell-based
Measurement context: HEK293, compound at 25 μM; receptor activated to EC80 with the corresponding agonist; read-out: screening result against bitter receptor 71
Measurement label: inhibition at 25 µM

Solved entries:
INSERT INTO results (molecule, value_measured) VALUES
  ('COc1cccc(CN(Cc2ccccc2)S(=O)(=O)c2ccc(C(=O)O)cc2)c1 [Example 5-74]', '60 to 80%'),
  ('COc1ccc(CN(Cc2ccc(C)o2)S(=O)(=O)c2ccc(C(=O)O)cc2)cc1 [Example 5-63]', '20 to 40%'),
  ('O=C(O)c1ccc(S(=O)(=O)N(Cc2ccccc2)Cc2ccc(Cl)cc2)cc1 [Example 5-77]', '40 to 60%');

Field: inhibition at 25 µM. Fill in for each record below.
1. COc1ccc(CN(Cc2ccc(OC)cc2)S(=O)(=O)c2ccc(C(=O)O)cc2)cc1 [Example 5-30]
2. O=C(O)C1CCC(CN(Cc2ccc(F)cc2)S(=O)(=O)Cc2ccccc2)CC1 (centres unmarked) [Example 5-24]
3. COc1cccc(CN(Cc2ccc(C(=O)O)cc2)S(=O)(=O)c2ccc(O)cc2)c1 [Example 5-43]
4. COc1ccc(CN(CCc2ccccc2)S(=O)(=O)c2ccc(C(=O)O)cc2)cc1 [Example 5-19]
5. COc1ccc(CN(Cc2cccnc2)S(=O)(=O)c2ccc(C(=O)O)cc2)cc1 [Example 5-88]

Result ::
1. 60 to 80%
2. 20 to 40%
3. 40 to 60%
4. 20 to 40%
5. 20 to 40%
